# Experimental system: human recombinant COX2 (hCOX2)
# Sequence (P35354 1-604): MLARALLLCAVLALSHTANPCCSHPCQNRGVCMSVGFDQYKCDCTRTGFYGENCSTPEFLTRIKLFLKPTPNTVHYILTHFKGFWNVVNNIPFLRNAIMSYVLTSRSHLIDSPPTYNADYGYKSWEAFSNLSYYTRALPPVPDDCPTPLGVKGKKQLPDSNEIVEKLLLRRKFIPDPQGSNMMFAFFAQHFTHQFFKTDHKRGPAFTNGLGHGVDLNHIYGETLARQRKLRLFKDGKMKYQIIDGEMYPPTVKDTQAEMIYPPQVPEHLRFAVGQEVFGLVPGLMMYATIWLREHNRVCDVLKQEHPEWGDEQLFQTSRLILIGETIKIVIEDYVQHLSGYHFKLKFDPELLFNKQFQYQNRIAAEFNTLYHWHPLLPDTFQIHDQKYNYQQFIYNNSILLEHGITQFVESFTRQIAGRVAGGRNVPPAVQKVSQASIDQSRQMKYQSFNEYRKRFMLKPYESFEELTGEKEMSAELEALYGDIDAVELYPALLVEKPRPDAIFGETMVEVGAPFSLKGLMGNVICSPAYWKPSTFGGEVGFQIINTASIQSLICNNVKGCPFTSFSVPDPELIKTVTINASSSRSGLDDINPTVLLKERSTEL
# Method notes: LCMS-based COX2 enzymatic inhibition assay (PGE2 quantification)
# Assay type: biochemical
# Design: COX2 2 minutes pge2/pge2d4 area ratio Avg; other: 2 minutes; readout pge2/pge2d4 area ratio; average; COX2 2 minutes pge2/pge2d4 area ratio Avg; LLE; average LLE; COX2 2 minutes pge2 area (counts) Avg; readout pge2 area (counts); other: 2 min; "ovine COX2 (oCOX2), human recombinant COX2 (hCOX2)"
# Settings: 2 minutes; readout pge2 area (counts); average; read-out: COX2 2 minutes pge2 area (counts) Avg. IC50
Doc: threshold 300 nM (exclusive). Items with IC50 beneath it return Satisfied; others return Not satisfied.

{"columns": ["Compound", "Group label"],
 "data": [
  ["CN(Cc1ccoc1)c1cccc(-c2ccc(S(C)(=O)=O)cc2)n1 [Compound 52]", "Satisfied"],
  ["CO/N=C(/c1ccc2ccn(-c3ccc(S(C)(=O)=O)cc3)c2n1)c1cccs1 [Compound 214]", "Not satisfied"],
  ["CS(=O)(=O)c1ccc(-c2cccc(OCc3ccc(F)cc3)n2)cc1 [Compound 95]", "Satisfied"],
  ["COc1ccc(NCc2ccco2)nc1-c1ccc(S(C)(=O)=O)cc1 [Compound 149]", "Satisfied"]
]}

Does the reported IC50 of CS(=O)(=O)c1ccc(-c2cccc([S@+]([O-])Cc3cccs3)n2)cc1 [Compound 251] stay below 300 nM?
Not satisfied

====

# Experimental system: ovine COX-1 (oCOX-1) (Ovis aries, UniProt P05979)
# Construct: purchased Cayman Chemicals (Ann Arbor, Mich.)
# Sequence (P05979 25-600): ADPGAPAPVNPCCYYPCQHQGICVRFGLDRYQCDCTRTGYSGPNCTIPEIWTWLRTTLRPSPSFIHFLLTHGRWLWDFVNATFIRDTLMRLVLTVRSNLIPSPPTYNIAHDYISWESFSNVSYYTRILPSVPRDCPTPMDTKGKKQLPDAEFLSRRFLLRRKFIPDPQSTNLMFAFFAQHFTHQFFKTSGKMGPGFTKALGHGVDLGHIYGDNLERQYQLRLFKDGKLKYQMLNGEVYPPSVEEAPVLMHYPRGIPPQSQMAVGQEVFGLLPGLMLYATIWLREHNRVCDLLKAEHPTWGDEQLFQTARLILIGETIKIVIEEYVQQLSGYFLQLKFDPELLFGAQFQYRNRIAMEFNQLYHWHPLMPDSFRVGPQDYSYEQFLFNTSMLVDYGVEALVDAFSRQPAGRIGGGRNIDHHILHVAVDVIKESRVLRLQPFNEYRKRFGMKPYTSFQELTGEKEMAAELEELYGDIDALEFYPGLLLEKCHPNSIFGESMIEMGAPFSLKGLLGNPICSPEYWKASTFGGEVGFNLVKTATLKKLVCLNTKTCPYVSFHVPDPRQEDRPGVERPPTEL
# Method notes: LCMS-based COX-1 enzymatic inhibition assay (PGE2 quantification)
# Format: biochemical
# Settings: 10 minutes; readout pge2/pge2d4 area ratio; average LLE
Recorded metric: COX1 10 minutes pge2/pge2d4 area ratio Avg. LLE
Lab note: jot the number down without any unit.

Here's what some known entries look like.
{"columns": ["Molecule", "Result number"],
 "data": [
  ["CS(=O)(=O)c1ccc(-c2cc(F)cc(OCc3cccs3)n2)cc1", 1.694],
  ["C[C@H](Oc1cncc(-c2ccc(S(C)(=O)=O)cc2)n1)c1cccs1 (single isomer, unassigned)", 2.125],
  ["CS(=O)(=O)c1ccc(-c2ccc3ccn(Cc4cccs4)c3n2)cc1", 1.013],
  ["CS(=O)(=O)c1ccc(-c2cncc(SCc3cccs3)n2)cc1", 2.392],
  ["Cc1ccsc1CNc1cccc(-c2ccc(S(C)(=O)=O)cc2)n1", 0.564]
]}

From here, focus on the item given below.
Return reported COX1 10 minutes pge2/pge2d4 area ratio Avg. LLE; argument: `CN(Cc1ccoc1)c1cccc(-c2ccc(S(C)(=O)=O)cc2)n1`
1.0149

====

# Experimental system: ovine COX-1 (oCOX-1) (Ovis aries, UniProt P05979)
# Construct: purchased Cayman Chemicals (Ann Arbor, Mich.)
# Method notes: LCMS-based COX-1 enzymatic inhibition assay (PGE2 quantification)
# Assay type: biochemical
# Settings: 10 minutes; readout pge2 area (counts); average LLE
Recorded metric: COX1 10 minutes pge2 area (counts) Avg. LLE
Lab note: jot the number down without any unit.

Here's what some known entries look like.
{"columns": ["Smi", "Result number"],
 "data": [
  ["COc1ccc(NCc2cccs2)nc1-c1ccc(S(C)(=O)=O)cc1", 0.884],
  ["CS(=O)(=O)c1ccc(-c2cccc(NCc3cccs3)c2)cc1", "−0.01745"],
  ["CS(=O)(=O)c1ccc(-c2ccc3ccn(Cc4cccs4)c3n2)cc1", 0.929],
  ["COc1ncc(NCc2ccccc2)nc1-c1ccc(S(C)(=O)=O)cc1", 1.734],
  ["CN(Cc1ccoc1)c1cccc(-c2ccc(S(C)(=O)=O)cc2)n1", 1.014],
  ["CS(=O)(=O)c1ccc(-c2cc(F)cc(NCc3ccoc3)n2)cc1", 1.484],
  ["CS(=O)(=O)c1ccc(-c2cccc(OCc3ccc(F)s3)n2)cc1", 0.2149],
  ["CS(=O)(=O)c1ccc(-c2cccc(OCc3cccs3)n2)nc1", 2.13]
]}

From here, focus on the item given below.
Return reported COX1 10 minutes pge2 area (counts) Avg. LLE; argument: `CS(=O)(=O)c1ccc(-c2cccc(OCc3ccco3)n2)cc1`
1.104

====

# Experimental system: human recombinant COX2 (hCOX2)
# Method notes: LCMS-based COX2 enzymatic inhibition assay (PGE2 quantification)
# Type: biochemical
# Design: COX2 2 minutes pge2/pge2d4 area ratio Avg; other: 2 minutes; readout pge2/pge2d4 area ratio; average; COX2 2 minutes pge2/pge2d4 area ratio Avg; LLE; average LLE; COX2 2 minutes pge2 area (counts) Avg; readout pge2 area (counts); other: 2 min; "ovine COX2 (oCOX2), human recombinant COX2 (hCOX2)"
# Settings: 2 minutes; readout pge2/pge2d4 area ratio; average LLE
Kind request: treat 4 as inclusive, so COX2 2 minutes pge2/pge2d4 area ratio Avg. LLE at 4 or higher is Fulfilled, anything lower is Not fulfilled.

Decide: is the reported value of COX2 2 minutes pge2/pge2d4 area ratio Avg. LLE for `CS(=O)(=O)c1ccc(-c2cc(F)cc(NCc3ccco3)n2)cc1` equal to or greater than 4?
Fulfilled

Decide: is the reported value of COX2 2 minutes pge2/pge2d4 area ratio Avg. LLE for `CS(=O)(=O)c1ccc(-c2cncc(OCc3cncs3)n2)cc1` equal to or greater than 4?
Fulfilled

Decide: is the reported value of COX2 2 minutes pge2/pge2d4 area ratio Avg. LLE for `CS(=O)(=O)c1ccc(-c2cccc(OCc3ccc(F)s3)n2)cc1` equal to or greater than 4?
Not fulfilled

Decide: is the reported value of COX2 2 minutes pge2/pge2d4 area ratio Avg. LLE for `CS(=O)(=O)c1ccc(-c2cncc(SCc3cccs3)n2)cc1` equal to or greater than 4?
Fulfilled

Decide: is the reported value of COX2 2 minutes pge2/pge2d4 area ratio Avg. LLE for `CS(=O)(=O)c1ccc(-c2cnc3cnn(Cc4cccs4)c3c2)cc1` equal to or greater than 4?
Not fulfilled

Decide: is the reported value of COX2 2 minutes pge2/pge2d4 area ratio Avg. LLE for `CS(=O)(=O)c1ccc(-c2cccc(Nc3ccccc3)n2)cc1` equal to or greater than 4?
Not fulfilled

Decide: is the reported value of COX2 2 minutes pge2/pge2d4 area ratio Avg. LLE for `CS(=O)(=O)c1ccc(-c2cccc(NCc3cnco3)n2)cc1` equal to or greater than 4?
Not fulfilled

Decide: is the reported value of COX2 2 minutes pge2/pge2d4 area ratio Avg. LLE for `CS(=O)(=O)c1ccc(-c2cncc(NCc3ccns3)n2)cc1` equal to or greater than 4?
Fulfilled

====

# Experimental system: human recombinant COX2 (hCOX2)
# Sequence (P35354 1-604): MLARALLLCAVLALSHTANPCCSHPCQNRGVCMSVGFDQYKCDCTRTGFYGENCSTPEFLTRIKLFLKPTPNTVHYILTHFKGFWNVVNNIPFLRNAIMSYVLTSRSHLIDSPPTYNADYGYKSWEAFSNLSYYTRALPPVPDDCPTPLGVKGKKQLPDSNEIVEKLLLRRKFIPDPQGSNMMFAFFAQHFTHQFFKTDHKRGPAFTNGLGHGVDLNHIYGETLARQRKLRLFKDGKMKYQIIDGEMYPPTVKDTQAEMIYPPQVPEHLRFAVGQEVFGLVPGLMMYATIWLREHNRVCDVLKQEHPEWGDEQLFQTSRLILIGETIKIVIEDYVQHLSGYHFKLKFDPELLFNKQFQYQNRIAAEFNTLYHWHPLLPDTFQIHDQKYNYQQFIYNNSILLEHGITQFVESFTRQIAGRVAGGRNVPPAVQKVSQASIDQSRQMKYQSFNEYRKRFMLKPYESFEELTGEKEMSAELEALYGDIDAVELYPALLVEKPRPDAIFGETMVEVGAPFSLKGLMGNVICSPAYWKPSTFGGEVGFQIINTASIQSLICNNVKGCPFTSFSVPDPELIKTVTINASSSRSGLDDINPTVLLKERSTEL
# Method notes: LCMS-based COX2 enzymatic inhibition assay (PGE2 quantification)
# Type: biochemical
# Design: COX2 2 minutes pge2/pge2d4 area ratio Avg; other: 2 minutes; readout pge2/pge2d4 area ratio; average; COX2 2 minutes pge2/pge2d4 area ratio Avg; LLE; average LLE; COX2 2 minutes pge2 area (counts) Avg; readout pge2 area (counts); other: 2 min; "ovine COX2 (oCOX2), human recombinant COX2 (hCOX2)"
# Settings: 2 minutes; readout pge2 area (counts); average; read-out: COX2 2 minutes pge2 area (counts) Avg. IC50
Doc: threshold 60 nM (exclusive). Items with IC50 beneath it return YES; others return NO.

A selection of reference data follows.
{"columns": ["Compound", "Group label"],
 "data": [
  ["CS(=O)(=O)c1ccc(-c2ncc3ncn(Cc4cccs4)c3n2)cc1 [Compound 164]", "NO"],
  ["CS(=O)(=O)c1ccc(-c2ccc3ccn(Cc4ccoc4)c3n2)cc1 [Compound 26]", "YES"]
]}

Does the reported IC50 of Cn1cc(CNc2cncc(-c3ccc(S(C)(=O)=O)cc3)n2)cn1 [Compound 237] stay below 60 nM?
NO

Does the reported IC50 of Cn1ccc(COc2cncc(-c3ccc(S(C)(=O)=O)cc3)n2)n1 [Compound 181] stay below 60 nM?
NO

Does the reported IC50 of COc1ncc(NCc2cncs2)nc1-c1ccc(S(C)(=O)=O)cc1 [Compound 163] stay below 60 nM?
NO

Does the reported IC50 of CS(=O)(=O)c1ccc(-c2cncc(NCc3cnco3)n2)cc1 [Compound 215] stay below 60 nM?
NO

Does the reported IC50 of CS(=O)(=O)c1ccc(-c2cccc(NCc3cncs3)n2)cc1 [Compound 99] stay below 60 nM?
NO

Does the reported IC50 of CS(=O)(=O)c1ccc(-c2cccc(NCc3cccs3)n2)cc1 [Compound 24] stay below 60 nM?
YES

Does the reported IC50 of CS(=O)(=O)c1ccc(-c2cccc(NCc3ccc[nH]3)n2)cc1 [Compound 73] stay below 60 nM?
YES

Does the reported IC50 of CS(=O)(=O)c1ccc(-c2cncc(OCc3cccs3)n2)cc1 [Compound 19] stay below 60 nM?
YES

Does the reported IC50 of CS(=O)(=O)c1ccc(-c2cccc(Nc3ccccc3)n2)cc1 [Compound 194] stay below 60 nM?
NO

Does the reported IC50 of C[C@@H](Oc1cncc(-c2ccc(S(C)(=O)=O)cc2)n1)c1cccs1 (single isomer, unassigned) [Compound 249] stay below 60 nM?
NO

Does the reported IC50 of COc1ncc(NCc2ccncc2)nc1-c1ccc(S(C)(=O)=O)cc1 [Compound 182] stay below 60 nM?
NO

Does the reported IC50 of CS(=O)(=O)c1ccc(-c2cncc(NCc3ccc(F)nc3)n2)cc1 [Compound 208] stay below 60 nM?
NO

Does the reported IC50 of CC(=O)c1ncc(NCc2cccs2)nc1-c1ccc(S(C)(=O)=O)cc1 [Compound 248] stay below 60 nM?
NO

Does the reported IC50 of COc1ncc(NCc2ccno2)nc1-c1ccc(S(C)(=O)=O)cc1 [Compound 183] stay below 60 nM?
NO

Does the reported IC50 of CC(C)CN(C)c1cncc(-c2ccc(S(C)(=O)=O)cc2)n1 [Compound 243] stay below 60 nM?
NO

Does the reported IC50 of COc1ncc(NCc2ncco2)nc1-c1ccc(S(C)(=O)=O)cc1 [Compound 236] stay below 60 nM?
NO

Does the reported IC50 of CO/N=C(\c1ccc2ccn(-c3ccc(S(C)(=O)=O)cc3)c2n1)c1cccs1 [Compound 191] stay below 60 nM?
NO

Does the reported IC50 of CS(=O)(=O)c1ccc(-c2cnnc(NCc3cccs3)c2)cc1 [Compound 233] stay below 60 nM?
NO

Does the reported IC50 of CS(=O)(=O)c1ccc(-n2ccc3ccc(NCc4ccoc4)nc32)cc1 [Compound 83] stay below 60 nM?
YES
